Reference source for all entries: patent US20250346668A1

target: T1, human CD3e/g antigen (ACRO, catalog number CDG-H52W5) (human, UniProt P07766 23-126; P09693 23-116); test: SPR (Biacore 8K), antibody captured via anti-human Fc
T1 construct: Bought reagent used as the Biacore analyte; also called hCD3e/g
READOUT NAME: kon (M⁻¹ s⁻¹)
Entry rule: numbers only, all in M⁻¹ s⁻¹.

Sample records with kon:
| BINDER | REPORTED |
| --- | --- |
| hAb007-30 (antibody, V domains shown, Humanized; constant regions not specified) VH: QVQLVQSGAEVKKPGASVKVSCKASGSTFTDNYIHWVKQAPGQRLEWIGWIYPGSVNIKYNEKFKDRATITADTSATTAYMELSSLRSEDTAVYYCARDISRYYFDYWGQGTTVTVSS VL: DIVMTQSPDSLAVSLGERATINCKSSQSLLNSRTRKNYLAWYQQKPGQPPKLLIYWASTRESGVPDRFTGSGSGTDFTLTISSLQAEDVAVYYCKQSFILRTFGGGTKLEIK | 445000 |
| hAb008-16 (antibody, V domains shown, Humanized; constant regions not specified) VH: QVQLVQSGAEVKKPGASVKVSCKASGYTFTDYTVNWVRQAPGQRLEWMGYINPFNSYTKYNQKFKDRVTITRDTSASTAYMELSSLRSEDTAVYYCARSVSTYWGQGTTVTVSS VL: DVVMTQSPLSLPVTLGQPASISCKSSQSLLDSDGKTYLNWFQQRPGQSPRRLIYLVSKLNSGVPDRFSGSGSGTDFTLKISRVEAEDVGVYYCWQGTHFPRTFGGGTKLEIK | 101000 |

Turning now to a further binder:
stdin: For the binder shown here, hAb008-26 (antibody, V domains shown, Humanized; constant regions not specified) VH: QVQLVQSGAEVKKPGASVKVSCKASGYTFTDYTVNWVRQAPGQRLEWIGYINPFNSYTKYNQKFKDRATITADTSASTAYMELSSLRSEDTAVYFCANSVSTYWGQGTTVTVSS VL: DVVMTQSPLSLPVTLGQPASISCKSSQSLLDSDGKTYLNWLQQRPGQSPRRLIQLVSKLNSGVPDRFSGSGSGTDFTLKISRVEAEDVGVFYCWQGTHFPRTFGGGTKLEIK , give the reported kon.
stdout: 266000
